Just for reference, patent US20090298765A1 is where these values come from.

biological target: human OT7T175 (metastin receptor) (human, UniProt Q969F8 1-398); experiment: cell-based or functional assay
Sequence (Q969F8 whole entry L364H): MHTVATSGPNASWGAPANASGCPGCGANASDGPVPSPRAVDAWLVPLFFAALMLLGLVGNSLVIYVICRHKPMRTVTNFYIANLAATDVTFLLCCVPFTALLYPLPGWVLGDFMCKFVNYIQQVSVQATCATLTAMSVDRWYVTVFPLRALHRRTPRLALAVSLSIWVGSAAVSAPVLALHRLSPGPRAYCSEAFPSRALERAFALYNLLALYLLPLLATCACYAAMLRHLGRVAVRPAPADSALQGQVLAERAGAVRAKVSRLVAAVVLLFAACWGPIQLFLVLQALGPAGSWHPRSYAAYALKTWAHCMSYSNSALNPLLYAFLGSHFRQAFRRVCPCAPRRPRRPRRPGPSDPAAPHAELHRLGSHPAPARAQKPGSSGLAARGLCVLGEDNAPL
Non-standard residues stand in square brackets, D forms with d. No end group written: not given here. Phe(3-Cl) = N[C@@H](Cc1cccc(Cl)c1)C(=O)O; Phe(4-NH2) = Nc1ccc(C[C@H](N)C(=O)O)cc1; Arg(Me) = CNC(=N)NCCC[C@H](N)C(=O)O; Cha = N[C@@H](CC1CCCCC1)C(=O)O; azaGly = NNC(=O)O
metric-name: Ca ion level-increasing activity (FLIPR)

Input [dY]N[Phe(3-Cl)]NSF[azaGly]L[Arg(Me)]F-NH2 (also called Compound No. 248) [[D-Tyr1,Phe(3Cl)3,AzaGly7,Arg(Me)9]MS10] . Output Ca ion level-increasing activity (FLIPR): 2 x Metastin (1-54)

Input [dY][dN]WNSF[azaGly]L[Arg(Me)]F-NH2 (also called Compound No. 237) [[D-Tyr1,D-Asn2,AzaGly7,Arg(Me)9]MS10] . Output Ca ion level-increasing activity (FLIPR): 3 x Metastin (1-54)

Input [dY]NWNSFGV[Arg(Me)]F-NH2 (also called Compound No. 213) [[D-Tyr1,Val8,Arg(Me)9]MS10] . Output Ca ion level-increasing activity (FLIPR): 2 x Metastin (1-54)

Input [dY]N[Phe(4-NH2)]NSF[azaGly]L[Arg(Me)]F-NH2 (N-terminus assumed; SMILES CNC(=N)NCCC[C@H](NC(=O)[C@H](CC(C)C)NC(=O)NNC(=O)[C@H](Cc1ccccc1)NC(=O)[C@H](CO)NC(=O)[C@H](CC(N)=O)NC(=O)[C@H](Cc1ccc(N)cc1)NC(=O)[C@H](CC(N)=O)NC(=O)[C@H](N)Cc1ccc(O)cc1)C(=O)N[C@@H](Cc1ccccc1)C(N)=O, also called Compound No. 250) [[D-Tyr1,Phe(4NH2)3,AzaGly7,Arg(Me)9]MS10] . Output Ca ion level-increasing activity (FLIPR): 1 x Metastin (1-54)

Input [dY]NFNSF[azaGly]L[Arg(Me)]F-NH2 (also called Compound No. 244) [[D-Tyr1,Phe3,AzaGly7,Arg(Me)9]MS10] . Output Ca ion level-increasing activity (FLIPR): 1 x Metastin (1-54)

Input [dY]N[Cha]NSF[azaGly]L[Arg(Me)]F-NH2 (N-terminus assumed; SMILES CNC(=N)NCCC[C@H](NC(=O)[C@H](CC(C)C)NC(=O)NNC(=O)[C@H](Cc1ccccc1)NC(=O)[C@H](CO)NC(=O)[C@H](CC(N)=O)NC(=O)[C@H](CC1CCCCC1)NC(=O)[C@H](CC(N)=O)NC(=O)[C@H](N)Cc1ccc(O)cc1)C(=O)N[C@@H](Cc1ccccc1)C(N)=O, also called Compound No. 190) [[D-Tyr1,Cha3,AzaGly7,Arg(Me)9]MS10] . Output Ca ion level-increasing activity (FLIPR): 10 x Metastin (1-54)
